# key: entry, value: PGI d12 (relative PGI release)
# Tested on: E. multilocularis metacestode vesicles
# ASSAY_REMARKS: Phosphoglucose isomerase (PGI) release assay (damage-marker release) on metacestode vesicles
# Assay type: cell-based, Echinococcus multilocularis
# MEASUREMENT_CONTEXT: overview screen, 10 μM, singlets, 12 days, relative to 0.1 % Triton X-100, DMSO subtracted
Please answer using the number first and the unit second.

Take a look at these entries with their results.
[[record]]
compound = "NS(=O)(=O)c1ccc(NC(=O)NC(c2ccccc2)c2ccccc2)cc1"
value_reported = "61.5508%"

[[record]]
compound = "CSc1ccc2c(c1)C(N1CCN(C)CC1)Cc1ccccc1S2 (centres unmarked)"
value_reported = "-0.02837%"


Using known records, supply PGI d12 (relative PGI release) for COc1ccc2c(c1OC)C(=O)OC2C1c2c(cc3c(c2OC)OCO3)CCN1C (centres unmarked) -3.872%

Using known records, supply PGI d12 (relative PGI release) for O=C(Nc1nnc(-c2ccc(Cl)cc2)o1)c1nc2ccccc2s1 1.422%

Using known records, supply PGI d12 (relative PGI release) for Cc1ccc(Oc2ccccc2-c2csc(N=C3NCCCN3)n2)c(C)c1 7.6311%

Using known records, supply PGI d12 (relative PGI release) for COc1cc(NS(=O)(=O)c2ccc(C)cc2)c2ncccc2c1 2.3899%

Using known records, supply PGI d12 (relative PGI release) for O=c1[nH]c(=O)n(Cc2cccc(Oc3ccccc3)c2)cc1Nc1ccccc1 -19.0475%

---

# key: entry, value: PGI d5 (relative PGI release)
# Tested on: E. multilocularis metacestode vesicles
# ASSAY_REMARKS: Phosphoglucose isomerase (PGI) release assay (damage-marker release) on metacestode vesicles
# Assay type: cell-based, Echinococcus multilocularis
# MEASUREMENT_CONTEXT: overview screen, 10 μM, singlets, 5 days, relative to 0.1 % Triton X-100, DMSO subtracted
Give your result in % as a bare value.

[[record]]
compound = "O=C(O)/C=C/C=C/c1cccc(Oc2cc(Cl)cc(Cl)c2)c1"
target_desc = "E. multilocularis metacestode vesicles"
value_reported = 0.04404

[[record]]
compound = "CN1C(=O)C(c2ccccc2)C(=O)N(c2ccccc2)c2cc(C(F)(F)F)ccc21 (stereo not drawn)"
target_desc = "E. multilocularis metacestode vesicles"
value_reported = 0.993

[[record]]
compound = "CCCC(=O)OCCc1ccccc1"
target_desc = "E. multilocularis metacestode vesicles"
value_reported = -0.4977

[[record]]
compound = "CCCCCCC1c2ccc(O)cc2Oc2cc(O)ccc21"
target_desc = "E. multilocularis metacestode vesicles"
value_reported = 1.318

[[record]]
compound = "O=S(=O)(Nc1ccccc1)c1ccc(NC(=S)Nc2ccccc2)cc1"
target_desc = "E. multilocularis metacestode vesicles"
value_reported = -3.292


Using known records, supply PGI d5 (relative PGI release) for CN(C)CCCNC(=O)c1ccc(-c2cc(O)c3ncccc3c2)cc1 -1.606

Using known records, supply PGI d5 (relative PGI release) for C[Si]1(C)CCN(Cc2cc(-c3ccc(Cl)cc3)n(-c3ccc(Cl)cc3)n2)CC1 -0.6444

Using known records, supply PGI d5 (relative PGI release) for CCc1nc2ccc(Cl)cn2c1C(=O)NCc1ccc(N2CCC(c3ccc(OC(F)(F)F)cc3)CC2)cc1 -3.859

Using known records, supply PGI d5 (relative PGI release) for CC(C)N(c1cc(-c2ccccc2)sc1C(=O)O)C(=O)[C@H]1CC[C@H](C)CC1 1.026
